Where do these numbers come from? They come from patent US8846601B2.

# Ki values compiled below
biological target: hMC4-R (Homo sapiens (Human), UniProt P32245); test: Competitive binding assay using Eu-NDP-α-MSH (TRF), hMC4-R membranes; settings: averaged; Eu-NDP-α-MSH (values marked *); read-out: MC4-R Ki
Sequence (P32245 whole entry): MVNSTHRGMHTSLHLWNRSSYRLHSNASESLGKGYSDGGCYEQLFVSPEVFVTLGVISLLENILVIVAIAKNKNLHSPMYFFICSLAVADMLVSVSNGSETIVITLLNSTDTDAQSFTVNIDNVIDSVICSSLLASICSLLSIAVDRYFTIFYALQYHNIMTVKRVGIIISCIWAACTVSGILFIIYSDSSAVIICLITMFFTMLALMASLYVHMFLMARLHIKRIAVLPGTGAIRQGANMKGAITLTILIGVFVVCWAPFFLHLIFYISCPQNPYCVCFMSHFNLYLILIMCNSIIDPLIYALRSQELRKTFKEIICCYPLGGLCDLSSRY
Peptide text beside a SMILES is read from it.
observation_type: Ki (nM)

CC(=O)N[C@@H](CCCNC(=N)N)C(=O)N[C@H]1CCC(=O)NCCC[C@@H](C(=O)O)NC(=O)[C@H](Cc2c[nH]c3ccccc23)NC(=O)[C@H](CCCNC(=N)N)NC(=O)[C@@H](Cc2ccccc2)NC(=O)[C@H](CCCCN)NC1=O [compound 89] (HELM PEPTIDE1{[ac].R.E.K.[dF].R.W.[Orn]}$PEPTIDE1,PEPTIDE1,3:R3-8:R3$$$V2.0) : 113
CC(=O)N[C@@H](CCCNC(=N)N)C(=O)N[C@H]1CC(=O)NCCCC[C@@H](C(N)=O)NC(=O)[C@H](Cc2c[nH]c3ccccc23)NC(=O)[C@H](CCCCN)NC(=O)[C@@H](Cc2ccccc2)NC(=O)[C@H](C)NC1=O [compound 8] (HELM PEPTIDE1{[ac].R.D.A.[dF].K.W.K.[am]}$PEPTIDE1,PEPTIDE1,3:R3-8:R3$$$V2.0) : 3020
CC(=O)N[C@@H](CCCNC(=N)N)C(=O)N[C@H]1CCCCNC(=O)C[C@@H](C(N)=O)NC(=O)[C@H](Cc2c[nH]c3ccccc23)NC(=O)[C@H](CCCNC(=N)N)NC(=O)[C@@H](Cc2ccccc2)NC(=O)[C@H](Cc2c[nH]cn2)NC1=O [compound 96] (HELM PEPTIDE1{[ac].R.K.H.[dF].R.W.D.[am]}$PEPTIDE1,PEPTIDE1,3:R3-8:R3$$$V2.0; bridges inferred) : 1

====

target: UniProt P32245; test: Competitive inhibition binding assay using [I125]-NDP-α-MSH, hMC4-R membranes; conditions: averaged; [I125]-NDP-α-MSH (values not marked *); read-out: MC4-R Ki
Peptide text beside a SMILES is read from it.
observation_type: Ki (nM)

CC(=O)N[C@@H](CCCNC(N)=O)C(=O)N[C@H]1CC(=O)NCCCC[C@@H](C(N)=O)NC(=O)[C@H](Cc2c[nH]c3ccccc23)NC(=O)[C@H](CCCNC(=N)N)NC(=O)[C@@H](Cc2ccccc2)NC(=O)[C@H](CCN)NC1=O : 9
CC(=O)N[C@@H](CCC(N)=O)C(=O)N[C@H]1CC(=O)NCCCC[C@@H](C(N)=O)NC(=O)[C@H](Cc2c[nH]c3ccccc23)NC(=O)[C@H](CCCNC(=N)N)NC(=O)[C@@H](Cc2ccccc2)NC(=O)[C@H](CCN)NC1=O [compound 142] (HELM PEPTIDE1{[ac].Q.D.[Dab].[dF].R.W.K.[am]}$PEPTIDE1,PEPTIDE1,3:R3-8:R3$$$V2.0) : 15
CC(=O)N[C@@H](CCCNC(=N)N)C(=O)N[C@H]1CCCCNC(=O)C[C@@H](C(N)=O)NC(=O)[C@H](Cc2c[nH]c3ccccc23)NC(=O)[C@H](CCCNC(=N)N)NC(=O)[C@@H](Cc2ccccc2)NC(=O)[C@H](CCN)NC1=O [compound 121] (HELM PEPTIDE1{[ac].R.K.[Dab].[dF].R.W.D.[am]}$PEPTIDE1,PEPTIDE1,3:R3-8:R3$$$V2.0) : 0.4
CC(=O)N[C@@H](CCCNC(=N)N)C(=O)N[C@H]1CCNC(=O)CCC[C@@H](C(=O)O)NC(=O)[C@H](Cc2c[nH]c3ccccc23)NC(=O)[C@H](CCCNC(=N)N)NC(=O)[C@@H](Cc2ccccc2)NC(=O)[C@H](CCN)NC1=O : 35
CC(=O)N[C@@H](CCCNC(=N)N)C(=O)N[C@H]1CC(=O)NCCCC[C@@H](C(=O)O)NC(=O)[C@H](Cc2c[nH]c3ccccc23)NC(=O)[C@H](CCCNC(=N)N)NC(=O)[C@@H](Cc2ccccc2)NC(=O)[C@H](CCCN)NC1=O : 23
CC(=O)N[C@@H](CCCNC(=N)N)C(=O)N[C@H]1CCC(=O)NCCC[C@@H](C(=O)O)NC(=O)[C@H](Cc2c[nH]c3ccccc23)NC(=O)[C@H](CCCNC(=N)N)NC(=O)[C@@H](Cc2ccccc2)NC(=O)[C@H](CCCN)NC1=O : 9
CC(=O)N[C@@H](CCCNC(=N)N)C(=O)N[C@H]1CCNC(=O)CCC[C@@H](C(N)=O)NC(=O)[C@H](Cc2c[nH]c3ccccc23)NC(=O)[C@H](CCCNC(=N)N)NC(=O)[C@@H](Cc2ccccc2)NC(=O)[C@H](CCC(N)=O)NC1=O : 4
